Values from ChEMBL document CHEMBL3886376

system.tested: Serine/threonine-protein kinase pim-2 (Homo sapiens, UniProt Q9P1W9)
Sequence (Q9P1W9 whole entry): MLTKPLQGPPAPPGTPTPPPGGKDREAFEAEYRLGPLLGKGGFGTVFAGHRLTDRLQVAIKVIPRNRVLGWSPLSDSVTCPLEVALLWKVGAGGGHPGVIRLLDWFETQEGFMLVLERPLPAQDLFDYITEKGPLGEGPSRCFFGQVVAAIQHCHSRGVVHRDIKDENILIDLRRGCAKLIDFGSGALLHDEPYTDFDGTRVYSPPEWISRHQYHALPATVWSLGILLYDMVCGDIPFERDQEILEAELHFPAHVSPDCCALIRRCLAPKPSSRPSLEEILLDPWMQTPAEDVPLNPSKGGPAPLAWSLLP
protocol.text: PIM Enzyme Assay: The assay for the determination of Pim activity is based on the formation of phosphorylated biotinylated-BAD peptide at the Serine 112 residue (S112) and employs HTRF (homogeneous time resolved fluorescence) technology to detect the product in a 96-well plate format. The phosphorylation of biotinylated-BAD (S112) peptide by full length recombinant Pim-1, Pim-2, or Pim-3 protein was detected with streptavidin:Allophycocyanin (APC) conjugate and a europium (Eu) labeled antibody directed against phosphorylated-BAD (S112). Excitation of Eu by a high energy laser light (337 nm) leads to a transfer of energy to the APC molecule, and results in an emission at 665 nm. The fluorescence is directly proportional to the amount of phosphorylated BAD peptide present in the reaction.Compounds were prepared in DMSO by conducting 3-fold serial dilutions to give a 10-point dosing curve having a high dose of 1 uM. A reference compound was included on each assay plate in order to validate that plate.
measurement.kind: IC50 (nM)
Answer with a number only, understood to be in nM.

Which IC50 reading was recorded for the compound N[C@H]1CCC[C@@H](c2ccncc2Nc2ncc3ccc(-c4c(F)cccc4F)nn23)C1 (mixture of isomers) ?
27
